# TARGET_ENTITY: Full length human recombinant HDAC6 protein (Homo sapiens, UniProt Q9UBN7)
# PROTOCOL_TEXT: In vitro histone deacetylase assay: enzymatic HDAC6 electrophoretic mobility shift assay
# MEASUREMENT_SETUP: 1 nM enzyme, 2 μM peptide substrate RHKK(Ac)-NH2, 25° C., 12 concentrations; read-out: Inhibitory Concentration (IC50) Values against HDAC6, Activity Range
pIC50: −log10 of the molar value.
ASSAY_METRIC: pIC50

| MOLECULE | RESULT |
| --- | --- |
| C[C@H]1COc2cc(C(=O)NO)ccc2CN1C(=O)[C@@]1(C)CCCCO1 | 6.30 to 7.00 |
| CC(C)(C)OC(=O)N1CCC2(CC1)CC2C(=O)N1CCOc2cc(C(=O)NO)ccc2C1 (stereo not shown) | 6.30 to 7.00 |
| O=C(NO)c1ccc2c(c1)OCCN(C(=O)C1(c3ccncc3)CC1)C2 | ≥ 7.00 |
| O=C(NO)c1ccc2c(c1)O[C@H]1C[C@@H]2N(C(=O)C2CCOCC2)C1 | < 6.30 |
| CC(=O)N1CCC(C(=O)N2Cc3ccc(C(=O)NO)cc3OC[C@@H]2C)CC1 | ≥ 7.00 |

// query pIC50 value for entry COc1ccc(C(C)(C)C(=O)N2CCOc3cc(C(=O)NO)ccc3C2)cc1OC
6.30 to 7.00

Now consider O=C(NO)c1ccc2c(c1)OCCN(C(=O)c1cc(C(F)(F)F)cc(C(F)(F)F)c1)C2 .
6.30 to 7.00

----------
# TARGET_ENTITY: Full length human recombinant HDAC6 protein (Homo sapiens, UniProt Q9UBN7)
# PROTOCOL_TEXT: In vitro histone deacetylase assay: enzymatic HDAC6 electrophoretic mobility shift assay
# MEASUREMENT_SETUP: 1 nM enzyme, 2 μM peptide substrate RHKK(Ac)-NH2, 25° C., 12 concentrations; read-out: Inhibitory Concentration (IC50) Values against HDAC6, Activity Range
Readings of IC50 for the listed compounds

Worked examples, 5 compounds total:
| COMPOUND | IC50 |
| --- | --- |
| CC(C)(C(=O)N1CCOc2cc(C(=O)NO)ccc2C1)c1ccccn1 | 0.1 to 0.5 µM |
| COC1(C(=O)N2Cc3ccc(C(=O)NO)cc3OC[C@@H]2C)CCCCC1 | ≤ 0.1 µM |
| O=C(NO)c1ccc2c(c1)OCCN(C(=O)C1CCOC1)C2 (stereo not shown) | ≤ 0.1 µM |
| COc1ccc(C(=O)N2CCOc3cc(C(=O)NO)ccc3C2)c(OC)c1 | 0.1 to 0.5 µM |
| C[C@H]1COc2cc(C(=O)NO)ccc2CN1C(=O)C1(C)CCC1 | ≤ 0.1 µM |

For the compound C[C@H]1COc2cc(C(=O)NO)ccc2CN1C(=O)C1(C)COC1 , what IC50 is on record?
≤ 0.1 µM

Consider next the compound CCC(Oc1ccccc1)C(=O)N1CCOc2cc(C(=O)NO)ccc2C1 (stereo not shown) in the same way.
0.1 to 0.5 µM

Another compound to check: O=C(NO)c1ccc2c(c1)O[C@@H](c1ccccc1)CN(C(=O)C1CCOCC1)C2
≤ 0.1 µM

Entry to check: CC(C)(C(=O)N1CCOc2cc(C(=O)NO)ccc2C1)c1ccccc1
0.1 to 0.5 µM

Please do the same for CC1(C(=O)N2CCOc3cc(C(=O)NO)ccc3C2)CCOCC1 as well.
≤ 0.1 µM

----------
# TARGET_ENTITY: Full length human recombinant HDAC6 protein (Homo sapiens)
# Sequence (Q9UBN7 1-1215): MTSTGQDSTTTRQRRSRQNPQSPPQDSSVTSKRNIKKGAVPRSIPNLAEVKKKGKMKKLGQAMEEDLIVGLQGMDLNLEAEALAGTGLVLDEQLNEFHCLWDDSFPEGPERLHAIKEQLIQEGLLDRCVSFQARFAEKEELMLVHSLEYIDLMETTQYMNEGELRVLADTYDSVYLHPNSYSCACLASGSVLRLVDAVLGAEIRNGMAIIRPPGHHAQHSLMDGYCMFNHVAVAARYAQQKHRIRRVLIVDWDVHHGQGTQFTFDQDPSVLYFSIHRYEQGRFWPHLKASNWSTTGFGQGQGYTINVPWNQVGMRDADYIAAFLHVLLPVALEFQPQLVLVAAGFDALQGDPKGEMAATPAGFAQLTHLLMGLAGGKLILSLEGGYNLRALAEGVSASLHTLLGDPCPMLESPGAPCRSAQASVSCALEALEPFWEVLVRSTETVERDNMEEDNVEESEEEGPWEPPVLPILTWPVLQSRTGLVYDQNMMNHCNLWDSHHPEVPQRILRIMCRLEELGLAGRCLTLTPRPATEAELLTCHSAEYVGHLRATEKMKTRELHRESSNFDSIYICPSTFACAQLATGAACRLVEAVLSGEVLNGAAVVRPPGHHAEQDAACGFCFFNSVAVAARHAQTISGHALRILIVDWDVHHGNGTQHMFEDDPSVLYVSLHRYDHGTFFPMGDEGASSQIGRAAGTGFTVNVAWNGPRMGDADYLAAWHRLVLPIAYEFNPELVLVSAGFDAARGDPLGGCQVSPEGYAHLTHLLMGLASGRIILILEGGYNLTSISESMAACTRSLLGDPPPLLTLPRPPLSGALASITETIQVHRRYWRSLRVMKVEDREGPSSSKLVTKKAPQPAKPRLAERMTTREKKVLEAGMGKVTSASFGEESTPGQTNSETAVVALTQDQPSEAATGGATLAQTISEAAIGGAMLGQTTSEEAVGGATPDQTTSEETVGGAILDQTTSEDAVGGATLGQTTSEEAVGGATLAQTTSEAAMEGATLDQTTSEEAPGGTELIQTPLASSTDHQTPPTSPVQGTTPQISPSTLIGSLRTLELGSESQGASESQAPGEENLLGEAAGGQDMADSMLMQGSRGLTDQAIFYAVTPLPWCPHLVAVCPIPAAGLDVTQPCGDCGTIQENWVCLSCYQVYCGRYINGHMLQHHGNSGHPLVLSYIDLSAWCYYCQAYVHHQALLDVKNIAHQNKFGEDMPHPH
# PROTOCOL_TEXT: In vitro histone deacetylase assay: enzymatic HDAC6 electrophoretic mobility shift assay
# MEASUREMENT_SETUP: 1 nM enzyme, 2 μM peptide substrate RHKK(Ac)-NH2, 25° C., 12 concentrations; read-out: Inhibitory Concentration (IC50) Values against HDAC6, Activity Range
Measured IC50, listed per entry for reference.

Recorded results for 4 compounds are shown here.
| SMILES_REPRESENTATION | RESULT |
| --- | --- |
| Cc1cc(C)c(CC(=O)N2CCOc3cc(C(=O)NO)ccc3C2)c(C)c1 | ≤ 100 nM |
| CC(C)C(=O)N1Cc2ccc(C(=O)NO)cc2OC[C@@H]1C | ≤ 100 nM |
| O=C(NO)c1ccc2c(c1)OCCN(C(=O)C1COC1)C2 | ≤ 100 nM |
| CC(=O)N1Cc2ccc(C(=O)NO)cc2OCC1(C)C | 100 to 500 nM |

I am curious: what IC50 value has been reported for C[C@@H]1COc2cc(C(=O)NO)ccc2CN1C=O ?
≤ 100 nM

Same question for C[C@H]1c2ccc(C(=O)NO)cc2OCCN1C(=O)C1(C)CCOCC1 please.
≤ 100 nM

----------
Known pIC50 of a selection of molecules
# TARGET_ENTITY: Full length human recombinant HDAC6 protein (Homo sapiens, UniProt Q9UBN7)
# PROTOCOL_TEXT: In vitro histone deacetylase assay: enzymatic HDAC6 electrophoretic mobility shift assay
# Type: biochemical
# MEASUREMENT_SETUP: 1 nM enzyme, 2 μM peptide substrate RHKK(Ac)-NH2, 25° C., 12 concentrations; read-out: Inhibitory Concentration (IC50) Values against HDAC6, Activity Range
pIC50: −log10 of the molar value.

Item C[C@H]1COc2cc(C(=O)NO)ccc2CN1C(=O)C1CCS(=O)(=O)CC1 has what recorded pIC50?
≥ 7.00

----------
# TARGET_ENTITY: Full length human recombinant HDAC6 protein (Homo sapiens)
# PROTOCOL_TEXT: In vitro histone deacetylase assay: enzymatic HDAC6 electrophoretic mobility shift assay
# Type: biochemical
# MEASUREMENT_SETUP: 1 nM enzyme, 2 μM peptide substrate RHKK(Ac)-NH2, 25° C., 12 concentrations; read-out: Inhibitory Concentration (IC50) Values against HDAC6, Activity Range
Some compounds, each annotated with its measured IC50.

Completed entries (count: 3):
| SMILES_REPRESENTATION | IC50 |
| --- | --- |
| O=C(NO)c1ccc2c(c1)OCC1(CC1)N(C(=O)C1CCOCC1)C2 | ≤ 100 nM |
| O=C(NO)c1ccc2c(c1)OCCN(C(=O)C1CCC3(CCNCC3)CC1)C2 | ≤ 100 nM |
| C[C@H]1CN(C=O)Cc2ccc(C(=O)NO)cc2O1 | ≤ 100 nM |

// lookup IC50 | system=Full length human recombinant HDAC6 protein (Homo sapiens) | key= O=C(NO)c1ccc2c(c1)OCCN(C(=O)Cc1ccccc1Oc1ccccc1)C2
> 500 nM
